Molecular target: Adenosine A3 receptor (Homo sapiens, UniProt P0DMS8)
Construct: expressed in transfected cells; host or cells: CHO cell membranes
Sequence (P0DMS8 1-318): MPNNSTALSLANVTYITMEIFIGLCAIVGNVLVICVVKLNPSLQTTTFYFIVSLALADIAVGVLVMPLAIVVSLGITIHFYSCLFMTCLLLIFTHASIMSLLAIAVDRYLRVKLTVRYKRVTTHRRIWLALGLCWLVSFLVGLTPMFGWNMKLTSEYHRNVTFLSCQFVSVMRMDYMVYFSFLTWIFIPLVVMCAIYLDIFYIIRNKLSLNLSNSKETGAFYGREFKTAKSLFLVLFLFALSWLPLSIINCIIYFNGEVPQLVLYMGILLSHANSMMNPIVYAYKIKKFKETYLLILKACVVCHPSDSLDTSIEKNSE
Experiment: Adenosine receptor TR-FRET binding assay, A3
Conditions: Table 9, further testing; displacement of 100 nM CA200645, CHO cell membranes; read-out: A3 Ki
pKi: −log10 of the molar value.
experimental readout: pKi

Observe how each entry below is paired with its result.
INSERT INTO results (molecule, endpoint_result) VALUES
  ('Nc1nc(-c2cccc(F)c2)ncc1C(=O)NCc1cc(F)cc(F)c1 [Example 10.7]', 6.11),
  ('Nc1nc(-c2cccc(F)c2)ncc1C(=O)NCc1c(Cl)cccc1Cl [Example 10.6]', 6.80),
  ('Nc1nc(-c2ccco2)ncc1C(=O)NCc1cccc(F)c1 [Example 5.13]', 5.57);

A. Nc1nc(-c2cccc(F)c2)ncc1C(=O)NCc1cccc(Cl)c1 [Example 10.2]
B. Cc1cccnc1CNC(=O)c1c(N)nc(-c2ccco2)nc1OCC(C)(C)C [Example 20.10]
C. Cc1cccnc1C(C)NC(=O)c1cnc(-c2ccco2)nc1N (centres unmarked) [Example 5.57]
D. Cc1cccnc1CNC(=O)c1c(N)nc(-c2cccc(C#N)c2)nc1OCCF [Example 24.8]
Input: Ascending by pKi, please: list the molecules accordingly. # output: labels, in the requested order
Output: C, A, D, B

a. Cc1cccnc1CNC(=O)c1nnc(-c2cccc(F)c2)nc1N [Example 7]
b. CC(C)n1ncnc1CNC(=O)c1c(N)nc(-c2cccc(C#N)c2)nc1OCCF [Example 24.4]
Input: Higher pKi: a or b ? // output: label of the selected item
Output: a

* * *

Target protein (sequence): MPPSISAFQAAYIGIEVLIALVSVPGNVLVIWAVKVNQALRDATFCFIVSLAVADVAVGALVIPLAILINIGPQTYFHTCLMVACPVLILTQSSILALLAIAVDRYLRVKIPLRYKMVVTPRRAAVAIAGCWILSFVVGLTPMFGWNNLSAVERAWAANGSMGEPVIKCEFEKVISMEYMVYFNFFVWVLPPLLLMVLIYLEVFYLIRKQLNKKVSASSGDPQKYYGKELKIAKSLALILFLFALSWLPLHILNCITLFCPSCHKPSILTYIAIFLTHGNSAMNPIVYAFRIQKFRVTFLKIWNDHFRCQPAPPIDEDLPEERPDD
experimental readout: Ki (nM)

INSERT INTO assay_data (compound, u, endpoint_result) VALUES
  ('CN(Cc1ccccc1)C(=O)c1cnc(-c2ccco2)nc1N [Example 5.22]', 'nM', 4240),
  ('Nc1nc(-c2ccco2)ncc1C(=O)NCc1ncccc1F [Example 5.48]', 'nM', 7960),
  ('COc1nc(-c2ccco2)nc(N)c1C(=O)NCc1c(Cl)cccc1Cl [Example 18.3]', 'nM', 18),
  ('Cc1cccnc1CNC(=O)c1nnc(-c2cccc(F)c2)nc1N [Example 7]', 'nM', 42),
  ('Nc1nc(-c2cccc(F)c2)ncc1C(=O)NCc1ccccc1Cl [Example 10.5]', 'nM', 658),
  ('CC(C)n1ncnc1CNC(=O)c1cnc(-c2ccco2)nc1N [Example 5.27]', 'nM', 2680),
  ('CC(C)n1ncnc1CNC(=O)c1cnc(-c2cccc(F)c2)nc1N [Example 10.15]', 'nM', 90),
  ('Nc1nc(-c2ccco2)ncc1C(=O)NCc1cc(F)cc(C(F)(F)F)c1 [Example 5.44]', 'nM', 364);

1. Nc1nc(-c2ccco2)ncc1C(=O)N[C@H](CO)c1ccccc1 [Example 5.61]
2. CC(=O)NCCOc1nc(-c2ccco2)nc(N)c1C(=O)NCc1ncccc1C [Example 20]
3. Nc1nc(-c2ccco2)ncc1C(=O)NCc1c(Cl)cccc1Cl [Example 5.16]
4. Cc1cccnc1CNC(=O)c1nnc(-c2cccc(C#N)c2)nc1N [Example 17]
Input: # desc sort on Ki across 4 compounds # output: labels, in the requested order
Output: 1, 3, 4, 2

Where do these numbers come from? They come from patent US20200339548A1.
